Parameter: viability, T/C. Scope: all listed entries.
Tested on: 883617-216-R-J1-PDC complex spheroid viability;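 also: exposure lasted seven days after three days of spheroid growth; 100% = DMSO vehicle control luminescence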
Assay: Anticancer human tumor 883617-216-R-J1-PDC patient-derived bladder carcinoma cell line growth inhibition
Conditions: second compound 0.316 µM; first compound 0.01 µM; hits give low values
Express your answer in %, writing the number without its unit.

> print(dat)
                                   compound  units.of.measure  test.result
1  O=C(C=Cn1cnc(-c2cc(C(F)(F)F)cc(C(F)(F)F)c2)n1)NNc1cnccn1 + NC1CCC(NC2CC2c2ccccc2)CC1                 %         60.6
2  Cn1ncnc1C1c2n[nH]c(=O)c3cc(F)cc(c23)NC1c1ccc(F)cc1 (configuration not stated) + NC1CCC(NC2CC2c2ccccc2)CC1                 %         89.7
3  CC[C@@]1(O)C(=O)OCc2c1cc1n(c2=O)Cc2cc3c(CN(C)C)c(O)ccc3nc2-1 + NC1CC1c1ccc(-c2cccc(O)c2)cc1                 %         30.4
4  CC(C)CC(NC(=O)CNC(=O)c1cc(Cl)ccc1Cl)B1OC(=O)CC(CC(=O)O)(C(=O)O)O1 (configuration not stated) + NC1CCC(NC2CC2c2ccccc2)CC1                 %         34.8

Req: # input compound: O=C(C=Cn1cnc(-c2cc(C(F)(F)F)cc(C(F)(F)F)c2)n1)NNc1cnccn1 + NC1CC1c1ccc(-c2cccc(O)c2)cc1 ; wanted: its viability, T/C
Resp: 31.3

Req: How about Cn1ncnc1C1c2n[nH]c(=O)c3cc(F)cc(c23)NC1c1ccc(F)cc1 (configuration not stated) + NC1CC1c1ccc(-c2cccc(O)c2)cc1 ?
Resp: 54.3

Req: How about COc1cc(Nc2ncc3c(n2)-c2ccc(Cl)cc2C(c2c(F)cccc2OC)=NC3)ccc1C(=O)O + NC1CCC(NC2CC2c2ccccc2)CC1 ?
Resp: 81.1
